- TEST SYSTEM: Progesterone Receptor (PR) (Homo sapiens, UniProt P06401)
- Construct: endogenous in cells; host or cells: T47D human breast mammary carcinoma cells
- ASSAY TEXT: In vitro functional assay for progesterone receptor (PR) antagonism: inhibition of progesterone-induced alkaline phosphatase expression in T47D cells
- Format: cell-based
- SETTINGS: Screen 1.0, functional progesterone antagonism; antagonist format (5 nM P4), alkaline phosphatase inhibition in T47D human mammary carcinoma cells
OBSERVED PROPERTY: IC50 (nM)

These solved cases illustrate the format of a correct answer.
Cc1cc(Oc2c(C3CC3)nn(Cc3cncnc3)c2C2CC2)cc(C)c1C#N    3
CCCn1nc(CC)c(Oc2ccc(C#N)cc2)c1CC    6
CNC(=O)Cn1nc(C2CC2)c(Oc2cc(C)c(C#N)c(C)c2)c1C    4

(a) Cc1cc(Oc2c(C3CC3)n[nH]c2C2CC2)cc(C)c1C#N
(b) CNC(=O)Cn1nc(C2CC2)c(Oc2cc(C)c(C#N)c(C)c2)c1C1CC1
(c) CCc1nn(CC#N)c(CC)c1Oc1cc(C)c(C#N)c(C)c1
Order the records, beginning with the lowest IC50 and ending with the highest. Form entry: labels listed in requested order.
b, c, a
